// compounds with reported pKi on Histamine H1 receptor (Homo sapiens, UniProt P35367), multi-publication
pKi: −log10 of the molar value.

# compound, value.observed
data = [
    ("CC(C1=C(CCN(C)C)Cc2cc(Cl)ccc21)c1nccs1 (single isomer, unassigned)", "≥ 6.60"),
]

-- ask Item under review: COc1ncccc1[C@@H](C)c1c(CCN(C)C)sc2ccccc12 . Reported pKi?
-- reply ≥ 6.00

-- ask Item under review: Clc1cc2c(NCc3cccs3)nc(N3CCNCC3)nc2cn1 . Reported pKi?
-- reply > 6.00

-- ask Item under review: NC(=O)COCCOCCN1CCN(c2nc(N)nc3c2CCc2cc(OCc4ccccc4)ccc2-3)CC1 . Reported pKi?
-- reply > 7.00
